// Ki collected for human CCR2 (Homo sapiens, UniProt P41597)
PROPERTY_NAME: Ki

> print(dat)
                                   molecule  property.name  endpoint.value
1  CC(=O)C1=C(O)C(=O)N(c2ccc(Br)cc2)C1C1CCCCC1 (centres unmarked) [Compound 31]             Ki          ~20 nM
2  CC(=O)C1=C(O)C(=O)N(c2ccc(Cl)cc2)C1C1CCCCC1 (centres unmarked) [Compound 30]             Ki          ~20 nM

---

displacement at 1 μM (%) listing for selected compounds.
- ASSAY_TARGET: human CCR2 (Homo sapiens, UniProt P41597)
- Sequence (P41597 1-360 isoform P41597-2): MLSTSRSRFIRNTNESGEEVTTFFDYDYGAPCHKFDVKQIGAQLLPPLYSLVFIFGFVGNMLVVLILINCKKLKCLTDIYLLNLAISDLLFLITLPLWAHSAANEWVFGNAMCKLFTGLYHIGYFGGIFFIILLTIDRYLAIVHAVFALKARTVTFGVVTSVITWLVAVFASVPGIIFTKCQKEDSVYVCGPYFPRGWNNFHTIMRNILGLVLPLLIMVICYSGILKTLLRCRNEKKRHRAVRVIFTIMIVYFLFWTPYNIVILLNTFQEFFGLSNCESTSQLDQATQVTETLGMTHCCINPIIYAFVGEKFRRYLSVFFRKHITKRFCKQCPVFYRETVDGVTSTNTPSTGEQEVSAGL
- ASSAY_INFO: [3H]-CCR2-RA-[R] displacement binding assay on U2OS-CCR2 membranes
- ASSAY_CONDITIONS: CCR2; [3H]-CCR2-RA-[R] displacement by 1 μM compound, mean of two experiments
PROPERTY_NAME: displacement at 1 μM (%)

> print(dat)
                                   compound  endpoint.value
1  COc1cccc(C2C(C(C)=O)=C(O)C(=O)N2c2ccc(C)cc2)c1 (centres unmarked)      0% (3, −3)
2  COc1ccc(C2C(C(C)=O)=C(O)C(=O)N2c2ccc(C)cc2)cc1 (centres unmarked)       5% (5, 5)
3  CC(=O)C1=C(O)C(=O)N(c2ccc(C)cc2)C1c1ccc(C)cc1 (centres unmarked)    36% (42, 31)
4  CC(=O)C1=C(O)C(=O)N(c2ccc(C)cc2)C1c1cccc(C)c1 (centres unmarked)     11% (14, 8)
5  CCOC(=O)C1=C(O)C(=O)N(c2ccc(C)cc2)C1C1CCCCC1 (centres unmarked)    31% (36, 26)
